The values you see were collected from patent US9796753B2.

System: ovarian OVCAR-3
Assay: COMPARE screening (NCI human cancer cell line screen), cytotoxicity GI50
Type: cell-based
Conditions: Homo sapiens, OVCAR-3, read-out: cytotoxicity (GI50) ovarian OVCAR-3
Reported GI50 by item:
recorded.endpoint: GI50

[
  {
    "molecule": "O=C1c2ccccc2-c2oc(=O)c3cc([N+](=O)[O-])ccc3c21 [Compound 4c]",
    "test.target": "ovarian OVCAR-3",
    "recorded.endpoint": "GI50",
    "result": "> 100 µM"
  },
  {
    "molecule": "COc1cc2c3c(oc(=O)c2cc1OC)-c1ccccc1C3=O [Compound 4a]",
    "test.target": "ovarian OVCAR-3",
    "recorded.endpoint": "GI50",
    "result": "≥ 100 µM"
  },
  {
    "molecule": "O=C1c2ccccc2-c2c1c1ccc([N+](=O)[O-])cc1c(=O)n2CCCBr [Compound 5bb]",
    "test.target": "ovarian OVCAR-3",
    "recorded.endpoint": "GI50",
    "result": "> 100 µM"
  }
]

---

System: CNS SF-539
Test: COMPARE screening (NCI human cancer cell line screen), cytotoxicity GI50
Type: cell-based
Conditions: Homo sapiens, CNSSF-539, 48 h, read-out: Cytotoxicity (GI50) CNS SF-539

[
  {
    "smiles": "COC(=O)COc1cc2c3c(n(CCCN4CCOCC4)c(=O)c2cc1OC)-c1cc2c(cc1C3=O)OCO2",
    "GI50 (nM)": 100
  },
  {
    "smiles": "COc1cc2c(=O)n(CCCN3CCOCC3)c3c(c2cc1OCCCN)C(=O)c1cc2c(cc1-3)OCO2",
    "GI50 (nM)": 200
  },
  {
    "smiles": "COc1cc2c(=O)n(CCCN3CCOCC3)c3c(c2cc1OCCCN1CCCCC1)C(=O)c1cc2c(cc1-3)OCO2",
    "GI50 (nM)": 30
  }
]

---

Tested on: ovarian OVCAR-3
Experiment: COMPARE screening (NCI human cancer cell line screen), cytotoxicity GI50
Type: cell-based
We begin with a simple list: items and their reported GI50.

[
  {
    "compound": "O=C(O)C(F)(F)F.O=C(O)C(F)(F)F.O=C1c2ccccc2-c2c1c1ccccc1c(=O)n2CCCN1CCN(CCCn2c3c(c4ccccc4c2=O)C(=O)c2ccccc2-3)CC1 [Compound 14f]",
    "relation.operator": ">",
    "GI50 (µM)": 100
  },
  {
    "compound": "COc1ccc2c(c1)C(=O)c1c-2n(CCCNCCO)c(=O)c2cc([N+](=O)[O-])ccc12.Cl",
    "relation.operator": "<",
    "GI50 (µM)": 0.01
  },
  {
    "compound": "O=C1c2ccccc2-c2c1c1ccccc1c(=O)n2CCNCCn1c2c(c3ccccc3c1=O)C(=O)c1ccccc1-2 [Compound 12a]",
    "relation.operator": ">",
    "GI50 (µM)": 25.1
  },
  {
    "compound": "COc1cc2c3c(n(CCN4CCOCC4)c(=O)c2cc1OC)-c1ccccc1C3=O",
    "relation.operator": ">",
    "GI50 (µM)": 100
  },
  {
    "compound": "COc1cc2c3c(n(CCCn4ccnc4)c(=O)c2cc1OC)-c1ccccc1C3=O",
    "relation.operator": "<",
    "GI50 (µM)": 0.01
  },
  {
    "compound": "CC(C)(C)OC(=O)NCCCCCCCCCCCCn1c2c(c3ccccc3c1=O)C(=O)c1ccccc1-2",
    "relation.operator": ">",
    "GI50 (µM)": 100
  },
  {
    "compound": "COc1ccc2c(c1)C(=O)c1c-2n(CCCN2CCOCC2)c(=O)c2ccccc12",
    "relation.operator": "=",
    "GI50 (µM)": 2.69
  },
  {
    "compound": "COc1ccc2c(c1)C(=O)c1c-2n(CCCN2CCOCC2)c(=O)c2cc([N+](=O)[O-])ccc12",
    "relation.operator": "<",
    "GI50 (µM)": 0.01
  },
  {
    "compound": "COc1ccc2c(c1)C(=O)c1c-2n(CCCI)c(=O)c2cc([N+](=O)[O-])ccc12",
    "relation.operator": "=",
    "GI50 (µM)": 3.02
  },
  {
    "compound": "O=C(O)C(F)(F)F.O=C1c2ccccc2-c2c1c1ccccc1c(=O)n2CCCNCCn1c2c(c3ccccc3c1=O)C(=O)c1ccccc1-2 [Compound 14a]",
    "relation.operator": "=",
    "GI50 (µM)": 8.91
  },
  {
    "compound": "CN(C)CCCn1c2c(c3ccc([N+](=O)[O-])cc3c1=O)C(=O)c1ccccc1-2",
    "relation.operator": "=",
    "GI50 (µM)": 25.7
  },
  {
    "compound": "COc1ccc2c(c1)C(=O)c1c-2n(CCCCl)c(=O)c2cc([N+](=O)[O-])ccc12",
    "relation.operator": "=",
    "GI50 (µM)": 3.39
  },
  {
    "compound": "O=C(O)C(F)(F)F.O=C(O)C(F)(F)F.O=C1c2ccccc2-c2c1c1ccccc1c(=O)n2CCNCCNCCn1c2c(c3ccccc3c1=O)C(=O)c1ccccc1-2 [Compound 14c]",
    "relation.operator": "=",
    "GI50 (µM)": 1.66
  },
  {
    "compound": "COc1cc2c3c(n(CCCN(C)C)c(=O)c2cc1OC)-c1ccccc1C3=O",
    "relation.operator": "=",
    "GI50 (µM)": 5.89
  }
]
